# MEASUREMENT_TARGET: UniProt P11511
# PROTOCOL_SUMMARY: Inhibition of aromatase in human SKBR3 cells by tritiated water release assay
# TEST_PARAMETERS: sk-br-3
QUANTITY: IC50 (nM)

CN(c1ccc([N+](=O)[O-])cc1OCc1ccc([N+](=O)[O-])cc1)S(C)(=O)=O ... 490
CCCCCCCCCOc1cc([N+](=O)[O-])ccc1NS(C)(=O)=O ... 910
CN(c1ccc(N)cc1OCc1ccccc1)S(C)(=O)=O ... 1100

P = CN(c1ccc([N+](=O)[O-])cc1OC1CCCCC1)S(C)(=O)=O
Q = CN(c1ccc(NC(=O)c2ccccc2)cc1OCc1ccccc1)S(C)(=O)=O
R = CN(c1ccc([N+](=O)[O-])cc1OCc1ccc2ccccc2c1)S(C)(=O)=O
## Input Sort ascending by IC50. I'd appreciate it if you listed the labels in the requested order.
## Output P, Q, R
(P: 470 nM, Q: 1770 nM, R: 2680 nM)

1 = CN(c1ccc(NC(=O)c2ccc(C#N)cc2)cc1OCc1ccccc1)S(C)(=O)=O
2 = CC(=O)Nc1ccc([N+](=O)[O-])cc1OCc1ccccc1
3 = CC(C)c1ccc(COc2cc([N+](=O)[O-])ccc2NS(C)(=O)=O)cc1
4 = CN(c1ccc([N+](=O)[O-])cc1OCc1ccc(F)cc1)S(C)(=O)=O
## Input Sort ascending by IC50. I'd appreciate it if you listed the labels in the requested order.
## Output 1, 2, 4, 3
(1: 440 nM, 2: 1180 nM, 4: 1780 nM, 3: 7450 nM)

1 = CN(c1ccc([N+](=O)[O-])cc1OCC1CCCCC1)S(C)(=O)=O
2 = CS(=O)(=O)Nc1ccc([N+](=O)[O-])cc1OCc1ccc(F)cc1
3 = CCC(CC)Oc1cc([N+](=O)[O-])ccc1NS(C)(=O)=O
4 = O=[N+]([O-])c1ccc(S(=O)(=O)Nc2ccc([N+](=O)[O-])cc2OCc2ccccc2)cc1
## Input Sort ascending by IC50. I'd appreciate it if you listed the labels in the requested order.
## Output 3, 2, 1, 4
(3: 300 nM, 2: 580 nM, 1: 960 nM, 4: 2170 nM)

* * *

# MEASUREMENT_TARGET: Aromatase (Homo sapiens, UniProt P11511)
# Sequence (P11511 whole entry): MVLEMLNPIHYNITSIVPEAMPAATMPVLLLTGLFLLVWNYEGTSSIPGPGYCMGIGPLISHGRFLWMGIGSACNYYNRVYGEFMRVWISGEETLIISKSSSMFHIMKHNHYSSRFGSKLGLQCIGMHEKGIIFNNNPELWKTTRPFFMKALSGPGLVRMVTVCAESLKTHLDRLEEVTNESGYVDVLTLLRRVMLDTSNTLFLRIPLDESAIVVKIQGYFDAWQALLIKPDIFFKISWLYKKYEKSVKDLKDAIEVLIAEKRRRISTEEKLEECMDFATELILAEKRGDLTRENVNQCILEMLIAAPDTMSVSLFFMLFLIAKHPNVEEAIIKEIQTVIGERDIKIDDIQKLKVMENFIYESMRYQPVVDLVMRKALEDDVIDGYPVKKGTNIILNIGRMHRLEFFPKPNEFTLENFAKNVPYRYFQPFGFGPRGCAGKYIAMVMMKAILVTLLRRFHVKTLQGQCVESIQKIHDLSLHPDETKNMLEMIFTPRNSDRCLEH
# PROTOCOL_SUMMARY: Inhibition of aromatase in human SKBR3 cells by tritiated water release assay
# TEST_PARAMETERS: sk-br-3
pIC50: −log10 of the molar value.
QUANTITY: pIC50

Use the examples below as a reference point.
CCC(CC)Oc1cc([N+](=O)[O-])ccc1N(C)S(C)(=O)=O ... 6.64
CS(=O)(=O)Nc1ccc([N+](=O)[O-])cc1OCc1ccc(Cl)cc1 ... 6.54
CN(c1ccc([N+](=O)[O-])cc1OCCc1ccccc1)S(C)(=O)=O ... 6.28

A = CN(c1ccc([N+](=O)[O-])cc1OC1CCCC1)S(C)(=O)=O
B = CCCOc1cc([N+](=O)[O-])ccc1N(C)S(C)(=O)=O
## Input Two entries are listed, A and B . Which one carries the higher pIC50? API: response body contains the label of the selected item.
## Output A
(A: 6.36, B: 6.12)

* * *

# MEASUREMENT_TARGET: Aromatase (Homo sapiens)
# PROTOCOL_SUMMARY: Inhibition of aromatase in human SKBR3 cells by tritiated water release assay
# TEST_PARAMETERS: sk-br-3
pIC50: −log10 of the molar value.
We begin with a simple list: items and their reported pIC50.

Use the examples below as a reference point.
O=C(Nc1ccc([N+](=O)[O-])cc1OCc1ccccc1)c1ccc(-c2ccccc2)cc1 ... < 4.60
O=C(Nc1ccc([N+](=O)[O-])cc1OCc1ccccc1)c1ccc(Cl)c([N+](=O)[O-])c1 ... < 4.60

Let us examine a further case.
## Input Request the reported pIC50 associated with "O=C(Nc1ccc([N+](=O)[O-])cc1OCc1ccccc1)c1ccc(Cl)c(Cl)c1"
## Output < 4.60
